Field: growth inhibition. Provide a value for each of the molecules that follow.
ASSAY OVERVIEW: NCI Yeast Anticancer Drug Screen. Data for the cln2 rad14 strain (AID 165);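 further: 0% = growth equal to vehicle treated cultures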
RUN CONDITIONS: S. cerevisiae cln2 rad14 strain, at 50.0 µM, active compounds read high
This is part of a sample that, as a whole, favours compounds with a hit. Of some 79,000 tested, about 15% had one in any assay.
Answers are plain numbers, in %.

See these solved cases before continuing.
O=C(O)CNC(=O)C(Cc1ccccc1)NC(=O)CNC(=O)C(CSC(c1ccccc1)c1ccccc1)NC(=O)C(CSC(c1ccccc1)(c1ccccc1)c1ccccc1)NC(=O)OCc1ccccc1 (stereo unspecified)    -17.2
NC(Cc1ccccc1)=NCC(=O)O    -79.9
CCCCCCC(=O)c1ccc2ccccc2c1O    -23.9

Items follow; give growth inhibition for each.
1. Nc1nc(=O)n(C2CCC(CO)O2)cc1F (stereo unspecified)
2. CC(NC(C)c1ccccc1)c1ccccc1 (stereo unspecified)

[-2.65, -7.3]

# growth inhibition of CNC(=S)NNc1ncnc2c1ncn2-c1ccc(C)cc1 = 29.7
